Reference source: the supplement of paper PMC7125110

B1: glmS ribozyme (parent)
chain: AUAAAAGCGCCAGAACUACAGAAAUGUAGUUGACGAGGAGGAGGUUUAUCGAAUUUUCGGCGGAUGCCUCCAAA

# Variants of: B1
# Assay Protocol: self-cleavage kobs at 160 uM GlcN6P; higher = faster cleavage; RNA array
# Test Context: with glucosamine-6-phosphate
Fewer inactive variants are shown than the library holds.
Listed here are variants together with their documented self-cleavage kobs at 160 uM GlcN6P.
Recorded Metric: self-cleavage kobs at 160 uM GlcN6P

>>> value("AUAAAAGCGCCAGAACUACAGAAAUGUAGUUGACGAGGAAGAUGUUUAUCGAAUUUUCGGCGGAUGCCUCCAAA [G40A G43U]")
"< 1e-05 s⁻¹"
>>> value("AUAAAAGUGCCAGAACUACAGAAAUGUAGUUGACGAGGAGGAGGUUUAUCGAAUUUUCGGCGCAUGCCUCCAAA [C8U G63C]")
"< 1e-05 s⁻¹"
>>> value("AUAAAAGCGCCAGAACUACAGAAAUGUAGUUAACGAGGAGGAGGUUUAUCGAAUUUUCGGCGGGUGCCUCCAAA [G32A A64G]")
"0.000104 s⁻¹"
>>> value("AUAAAAGCGCCAGAACUACAGAAAUGUAGUUGACGAGGAGGAGGUUUAUGGAAUUUGCGGCGGAUGCCUCCAAA [C50G U57G]")
"0.000283 s⁻¹"
>>> value("AUAAAAGCGCCAGAACUACAGAAAUGUAGUUGACGAGGAGGAGGUUAAUCGAAUUUUCGGCGGAUGCCUUCAAA [U47A C70U]")
"0.00118 s⁻¹"
>>> value("AUAAAAGCGCCAGAACUACAGAAAUGUAGUUGACGAGGAGGAGGUUUAUGGAAUUUUCGGCGGAUACCUCCAAA [C50G G66A]")
"5.66e-05 s⁻¹"
>>> value("AUAAAGGCGCCAGAACUACAGAAAUGUAGUUGCCGAGGAGGAGGUUUAUCGAAUUUUCGGCGGAUGCCUCCAAA [A6G A33C]")
"< 1e-05 s⁻¹"
>>> value("AUAAAAGCGCCAGAACUACAGAAAUGUAGCUGACGAGGAUGAGGUUUAUCGAAUUUUCGGCGGAGGCCUCCAAA [U30C G40U U65G]")
"< 1e-05 s⁻¹"
>>> value("AUAAAAGCGCCAGAACUACAGAAAUGUAGUUGACGAGGAGAAGGUUUUUCGAAUUUUCGGCGGAUGCCUCCAAA [G41A A48U]")
"< 1e-05 s⁻¹"
>>> value("AUAAAAGCGCCAGCACUACAGAAAUGUAGUUGACGAAGAGGAGGUUUAUCGAAUUUUCGGCGGAUGCCUCCAAA [A14C G37A]")
"6.1e-05 s⁻¹"
>>> value("AUAAAAGCGCCAGAACUACAGAAAUGUAGUUGACGAGGAGCACGUUUAUCGAAUUUUCGGCGGAUGCCUCCAAA [G41C G43C]")
"< 1e-05 s⁻¹"
>>> value("AUAAAAGCGCCAGAACUACAGAAAUGUAGUUGACGAGGAGGAGGUUCAUCGAAUUUUCAGCGGAUGCCUCCAAA [U47C G59A]")
"< 1e-05 s⁻¹"
>>> value("AUAAAAGCGCCAAAACUACAGAAAUGUAGUUGACGAGGAGGUGGUUUAUCGAAUUUUCGGCGGAUGCCUCCAAA [G13A A42U]")
"< 1e-05 s⁻¹"
>>> value("AUAAAAGCGCCAGAACUACAGAAAUGUAGUUGGCGAGGAGAAGGUUUAUCGAAUUUUCGGCGGAUGCCUACAAA [A33G G41A C70A]")
"< 1e-05 s⁻¹"
